Values were extracted from patent US20180221384A1.

- Protocol Description: Pilot in vivo study: midazolam film preparation applied on the oro-mucosal membrane, plasma levels by LC-MS/MS
- Experimental Setup: human, plasma, other: applied on the oro-mucosal membrane, 1 mg
- Procedure: Film preparations weighing approximately 0.07 g (1×2 cm) containing 2 mg midazolam hydrochloride were applied on the oro-mucosal membrane in healthy volunteers (body weight 90 kg). Venous blood samples were drawn 6, 12 and 18 minutes after application. Film preparations weighing approximately 0.07 g (1×2 cm) containing 1 mg midazolam hydrochloride were applied on the oro-mucosal membrane in healthy volunteers (body weight 90 kg). […]
Structures can show the parent of a compound that is named as a salt.
Quantity: concentration at 12 min (ng/mL)
A number alone suffices; assume ng/mL.

Per the record, Cc1ncc2n1-c1ccc(Cl)cc1C(c1ccccc1F)=NC2 [midazolam hydrochloride, Midazolam hydrochloride] has concentration at 12 min of 4.6
